Reference for the values: patent US20200131669A1

assay_method_text: Caco-2 membrane permeability, improved method as used in the following Examples (96-well, 20 to 24 h preincubation)
Type: in vitro ADME
measurement_context: human, Caco-2, Caco-2 (cm/sec)
Positions of bridges follow the written chain, without caps; N, C: chain ends. Non-standard residues stand in square brackets, D forms with d. Residues, ends and D or L forms follow the SMILES beside them. *: point of attachment. NMePhe(3-Cl) = CN[C@@H](Cc1cccc(Cl)c1)C(=O)O; Tyr(3-F) = N[C@@H](Cc1ccc(O)c(F)c1)C(=O)O; NMeF = CN[C@@H](Cc1ccccc1)C(=O)O; NMeL = CN[C@@H](CC(C)C)C(=O)O; NMeA = CN[C@@H](C)C(=O)O; Piperidide = C1CCN(*)CC1; Sar = CNCC(=O)O
Label scheme for Papp A→B at 180 min: lower than 1 ×10⁻⁶ cm/s is Criterion not met, 1 ×10⁻⁶ cm/s and above is Criterion met.

Reference set (4 entries):
{"compound": "CC(C)C[C@@H]1NC(=O)[C@H](C)N(C)C(=O)C[C@@H](C(=O)N2CCCCC2)NC(=O)[C@H](CC(C)C)N(C)C(=O)CN(C)C(=O)[C@H]([C@@H](C)O)NC(=O)[C@H](Cc2ccccc2)N(C)C(=O)[C@H](Cc2ccccc2)N(C)C(=O)[C@H](CC(C)C)NC(=O)[C@H](Cc2ccccc2)N(C)C(=O)[C@H](CC(C)C)N(C)C1=O [pd204] ([NMeA]L[NMeL][NMeF]L[NMeF][NMeF]T[Sar][NMeL]D-Piperidide; lactam N-11)", "class_name": "Criterion met"}
{"compound": "CC(C)C[C@@H]1NC(=O)[C@H](C)N(C)C(=O)C[C@@H](C(=O)N2CCCCC2)NC(=O)[C@H](CC(C)C)N(C)C(=O)CN(C)C(=O)[C@H]([C@@H](C)O)NC(=O)[C@H](CC(C)C)N(C)C(=O)[C@H](Cc2cccc(Cl)c2)N(C)C(=O)[C@H](C)NC(=O)[C@H](Cc2ccccc2)N(C)C(=O)[C@H](CC(C)C)N(C)C1=O [pd161] ([NMeA]L[NMeL][NMeF]A[NMePhe(3-Cl)][NMeL]T[Sar][NMeL]D-Piperidide; lactam N-11)", "class_name": "Criterion met"}
{"compound": "CC(C)C[C@@H]1NC(=O)[C@H](CC(C)C)N(C)C(=O)[C@H](C)N(C)C(=O)[C@@H](C(C)C)NC(=O)C[C@@H](C(=O)N2CCCCC2)NC(=O)[C@H]([C@@H](C)O)NC(=O)[C@H](C)N(C)C(=O)[C@H](C)N(C)C(=O)[C@H](CC(C)C)N(C)C(=O)[C@H](Cc2ccc(O)c(F)c2)NC(=O)[C@H](Cc2ccccc2)N(C)C1=O [pd113] ([dV][NMeA][NMeL]L[NMeF][Tyr(3-F)][NMeL][NMeA][NMeA]TD-Piperidide; lactam N-11)", "class_name": "Criterion not met"}
{"compound": "CC(C)C[C@@H]1NC(=O)[C@H](Cc2ccccc2)N(C)C(=O)[C@H](COC(C)(C)C)NC(=O)[C@H](Cc2ccccc2)N(C)C(=O)[C@H](C)N(C)C(=O)[C@H](CC(C)C)N(C)C(=O)[C@@H]2CCCN2C(=O)N[C@@H](C(=O)N2CCCCC2)NC(=O)[C@H](Cc2ccccc2)N(C)C(=O)[C@H]([C@@H](C)O)NC(=O)[C@H](CC(C)C)N(C)C1=O [pd214]", "class_name": "Criterion met"}

// inclusive: Papp A→B at 180 min at least 1 ×10⁻⁶ cm/s? input: CC(C)C[C@@H]1NC(=O)[C@H](CC(C)C)N(C)C(=O)[C@H](C)N(C)C(=O)C[C@@H](C(=O)N(C)[C@@H](Cc2ccccc2)C(=O)N[C@@H](C)C(=O)N2CCCCC2)NC(=O)[C@H]([C@@H](C)O)NC(=O)[C@H](CC(C)C)N(C)C(=O)[C@H](Cc2ccccc2)NC(=O)[C@H](Cc2ccccc2)N(C)C(=O)[C@H](CC(C)C)N(C)C1=O [pd218] ([NMeA][NMeL]L[NMeL][NMeF]F[NMeL]TD[NMeF]A-Piperidide; lactam N-9)
Criterion met
